// data source = ChEMBL document CHEMBL3826911

test: Protein binding in human plasma by equilibrium dialysis method; assay type: ADME, cell-free; settings: read-out: PPB (converted)
ENDPOINT: fraction unbound

So, C[C@](O)(CS(=O)(=O)c1ccc(F)cc1)C(=O)Nc1ccc(C#N)c(C(F)(F)F)c1 [(R)-BICALUTAMIDE] ? Its fraction unbound was 0.04

###

# IC50 per entry
experiment: Antiproliferative activity against human VCaP cells assessed as reduction in cell viability after 96 hrs by propidium iodide staining based fluorescence assay; assay type: functional; details: Homo sapiens, VCaP, 96 h; read-out: IC50
Please give a number only; it is taken to be in µM.

Known results for compounds:
CC(O)(CSc1ccccc1C(F)(F)F)C(=O)Nc1cc(C(F)(F)F)cc(C(F)(F)F)c1 (stereo not drawn) :: 3.84
CC(O)(CSc1cc(C(F)(F)F)cc(C(F)(F)F)c1)C(=O)Nc1ccc([N+](=O)[O-])cc1C(F)(F)F (stereo not drawn) :: 3.52
CC(O)(COc1cc(C(F)(F)F)cc(C(F)(F)F)c1)C(=O)Nc1ccc(C(F)(F)F)cc1 (stereo not drawn) :: 4.15
CC(O)(CS(=O)(=O)c1cc(C(F)(F)F)cc(C(F)(F)F)c1)C(=O)Nc1ccc(C#N)c(C(F)(F)F)c1 (stereo not drawn) :: 6.21
C[C@](O)(CS(=O)(=O)c1cc(C(F)(F)F)cc(C(F)(F)F)c1)C(=O)Nc1ccc(C#N)c(C(F)(F)F)c1 :: 4.11

Entry CC(O)(CSc1cc(C(F)(F)F)cc(C(F)(F)F)c1)C(=O)Nc1ccc([N+](=O)[O-])c(C(F)(F)F)c1 (stereo not drawn) , IC50 reported as 1.53

# IC50 (compound: CC(O)(CSc1ccccc1OC(F)(F)F)C(=O)Nc1cc(C(F)(F)F)cc(C(F)(F)F)c1 (stereo not drawn) ) is 2.9

Reported IC50 for CC(O)(CS(=O)(=O)c1ccccc1C(F)(F)F)C(=O)Nc1cc(C(F)(F)F)cc(C(F)(F)F)c1 (stereo not drawn) was 8.55

###

log10(half-life at 3 µM) values, listed per item
experiment: Half life in human liver microsomes at 3 uM in presence of NADPH by LC-MS/MS analysis; assay type: ADME
Recorded half-life at 3 µM (log10, h)

Known results for compounds:
CC(O)(CS(=O)(=O)c1cc(C(F)(F)F)cc(C(F)(F)F)c1)C(=O)Nc1ccc([N+](=O)[O-])c(C(F)(F)F)c1 (configuration not stated) :: 0.98
CC(O)(CS(=O)(=O)c1ccccc1OC(F)(F)F)C(=O)Nc1cc(C(F)(F)F)cc(C(F)(F)F)c1 (configuration not stated) :: 0.68
C[C@](O)(CSc1cc(C(F)(F)F)cc(C(F)(F)F)c1)C(=O)Nc1ccc(C#N)c(C(F)(F)F)c1 :: -0.97

Please fill in: log10(half-life at 3 µM) reported for CC1(C)C(=O)N(c2ccc([N+](=O)[O-])cc2C(F)(F)F)C(=S)N1c1cc(C(F)(F)F)cc(C(F)(F)F)c1 = 0.08

Record C[C@](O)(CS(=O)(=O)c1ccc(F)cc1)C(=O)Nc1ccc(C#N)c(C(F)(F)F)c1 [(R)-BICALUTAMIDE] , field log10(half-life at 3 µM): 0.55

Record CC(O)(COc1cc(C(F)(F)F)cc(C(F)(F)F)c1)C(=O)Nc1ccc(C#N)c(C(F)(F)F)c1 (configuration not stated) . Reported log10(half-life at 3 µM): 1.51

// log10(half-life at 3 µM) value for COc1ccc2c(c1)[C@]13CCCC[C@@H]1[C@H](C2)N(C)CC3 [DEXTROMETHORPHAN] : 0.02
